Tested on: T-47D breast
Test: NCI tumour cell line growth inhibition, 48 h
QUANTITY_KIND: TGI

COMPOUND: CCOC(=O)c1ccc(N=NN(C)C(=O)C(C)N)cc1 (stereo not given)
TGI: > 100 µM
--
COMPOUND: COc1cccc(C2CC(c3cc(OC)c(OC)c(OC)c3)=NN2)c1 (stereo not given)
TGI: > 100 µM
--
COMPOUND: COC(=O)c1cn(CCCC(=O)O)nn1
TGI: > 100 µM

Asked: Returns the measured TGI for the input compound. Input: "CC1(C)O[C@H]2Cn3c(c(C#N)c4ccccc43)[C@H]2O1"
Given back: > 100 µM

Asked: Returns the measured TGI for the input compound. Input: "C[n+]1c(/C=C\C=C\N2CCCCC2)sc2ccccc21"
Given back: 2.72 µM

Asked: Returns the measured TGI for the input compound. Input: CO[C@H](C(=O)[C@@H](O)[C@@H](C)O)[C@@H]1Cc2cc3cc(O[C@H]4C[C@@H](O[C@H]5C[C@@H](O)[C@H](O)C(C)O5)[C@H](O)C(C)O4)c(C)c(O)c3c(O)c2C(=O)[C@H]1O[C@H]1C[C@@H](O[C@H]2C[C@@H](O[C@H]3C[C@@H](OC)[C@H](O)C(C)O3)[C@@H](O)C(C)O2)C(O)(O)C(C)O1 (stereo not given in full)
Given back: 24.6 µM

Asked: Returns the measured TGI for the input compound. Input: "COc1cc(-c2nn3c(/C=C4/C(=O)Nc5ccccc54)c(-c4ccc(C)cc4)nc3s2)cc(OC)c1OC"
Given back: > 100 µM

Asked: Returns the measured TGI for the input compound. Input: O=C1C=CC2CCC1C2 (stereo not given)
Given back: > 100 µM

Asked: Returns the measured TGI for the input compound. Input: "O=c1cc(CNC2CCCC2)[nH]c(=O)[nH]1"
Given back: > 100 µM

Asked: Returns the measured TGI for the input compound. Input: COC(=O)c1c2c(cc3c1CC1(Cc4ccccc4C1=O)C3)CCC2 (stereo not given)
Given back: > 100 µM

* * *

TGI values by entry
System: ACHN renal
Experiment: NCI tumour cell line growth inhibition, 48 h

Look over these answered cases.
MOLECULE: Nc1nc(CCC(=O)Nc2cccc(C(F)(F)F)c2)cc(-c2cccc3ccccc23)n1
TGI: > 100 µM
//
MOLECULE: CCOc1ccc(NC(=O)CC2SC(=Nc3ccc(Cl)cc3)NC2=O)cc1 (configuration not stated)
TGI: > 100 µM
//
MOLECULE: CCCCNC1CCC2(SCCS2)c2[nH]c3ccccc3c21 (configuration not stated)
TGI: > 100 µM

Asked: Any idea what TGI came out for "N#Cc1cccc(N2C(=O)c3c(c(-c4ccccc4)c(-c4ccc(Sc5ccc(-c6c(-c7ccccc7)c7c(c(-c8ccccc8)c6-c6ccccc6)C(=O)N(c6cccc(C#N)c6)C7=O)cc5)cc4)c(-c4ccccc4)c3-c3ccccc3)C2=O)c1" on ACHN renal?
Given back: > 100 µM

Asked: Any idea what TGI came out for COc1ccc(/C(=N/NC(N)=O)C2(O)C(=O)Nc3ccc([N+](=O)[O-])cc32)cc1 (configuration not stated) on ACHN renal?
Given back: 30.6 µM

Asked: Any idea what TGI came out for "CCOC(=O)c1cn(-c2ccccc2)c(=S)n2c1nc1ccccc12" on ACHN renal?
Given back: > 100 µM

Asked: Any idea what TGI came out for "Cc1cc(C)nc(NC(N)=NCCc2ccccc2)n1" on ACHN renal?
Given back: > 100 µM

Asked: Any idea what TGI came out for "O=C(Nc1ccc(Cl)cc1Cl)c1ccc(NC2=C(Cl)C(=O)N(Cc3ccccc3)C2=O)cc1" on ACHN renal?
Given back: 33.7 µM

Asked: Any idea what TGI came out for "c1ccc(SC2(Sc3ccccc3)CCCC2)cc1" on ACHN renal?
Given back: > 100 µM

Asked: Any idea what TGI came out for "O=C(Cc1ccccc1)NCCc1ccc(O)c(O)c1" on ACHN renal?
Given back: > 100 µM

* * *

Test system: RXF 393 renal
Assay: NCI tumour cell line growth inhibition, 48 h
TGI values by entry

Look over these answered cases.
COMPOUND: COc1cc2c(cc1OC)C13CCN4C=C5CCOC6CC(=O)N2C1C6C5CC43 (stereo not drawn)
TARGET_OF_ASSAY: RXF 393 renal
TGI: > 100 µM
//
COMPOUND: O=C(c1ccccc1)c1ccc2c(c1)nc1n2C(c2c(Cl)cccc2Cl)SC1 (stereo not drawn)
TARGET_OF_ASSAY: RXF 393 renal
TGI: > 100 µM

For the next question, use this compound.
Asked: Returns the measured TGI for the input compound. Input: "O=C(c1ccc2ccccc2c1O)N1CCCCC1"
Given back: > 100 µM

* * *

Tested on: SK-OV-3 ovarian
Experiment: NCI tumour cell line growth inhibition, 48 h
TGI values by entry

Look over these answered cases.
COMPOUND: O=C1c2ccccc2C2(O)Nc3cc(O)ccc3C12O (stereo not drawn)
TARGET_OF_ASSAY: SK-OV-3 ovarian
RESULT: > 100 µM

COMPOUND: C=CC(=O)Nc1ccc(Nc2nccc(-c3ccc(N4CCCC4)c(C#N)c3)n2)cc1
TARGET_OF_ASSAY: SK-OV-3 ovarian
RESULT: > 25 µM

Asked: Any idea what TGI came out for "O=C(CSCC(=O)N/N=C/c1cc(I)cc(I)c1O)N/N=C/c1cc(I)cc(I)c1O" on SK-OV-3 ovarian?
Given back: 35 µM

* * *

TGI values by entry
System: BT-549 breast
Assay: NCI tumour cell line growth inhibition, 48 h

Look over these answered cases.
COMPOUND: COCOc1ccc(C(=O)C(C)c2ccc(OCOC)cc2OCOC)c(O)c1 (stereo unspecified)
TARGET_OF_ASSAY: BT-549 breast
TGI: > 100 µM

COMPOUND: COc1c2cc([N+](=O)[O-])cc1CNC(=O)CN1CCOCCOCCN(CCOCCOCC1)CC(=O)NC2
TARGET_OF_ASSAY: BT-549 breast
TGI: > 100 µM

For the next question, use this compound.
Asked: Returns the measured TGI for the input compound. Input: "Cc1[nH]c2ncn(/N=C/c3ccccc3O)c(=N)c2c1Cc1ccccc1"
Given back: > 100 µM

* * *

System: TK-10 renal
Assay: NCI tumour cell line growth inhibition, 48 h
TGI values by entry

Look over these answered cases.
COMPOUND: CC(C)(C)OC(=O)NCCNC1=CC(=O)c2nc3ccccc3c3ccnc1c23
TGI: 99.7 µM
//
COMPOUND: Cc1ccc(S(=O)(=O)N/N=C/c2oc(-c3cccc([N+](=O)[O-])c3)c(-c3cccc([N+](=O)[O-])c3)c2[N+](=O)[O-])cc1
TGI: > 100 µM
//
COMPOUND: CCC(C)[C@H](NC(=O)[C@H](Cc1ccccc1)NC(=O)N(CC)c1ccccc1)C(=O)N[C@@H](CC(C)C)C(=O)OC (some centres undefined)
TGI: > 100 µM
//
COMPOUND: CC1=CCC[C@@]2(C)C(CC[C@@H]2C(C)/C=C/C(C)C)c2ccc(cc2C(=O)O)C[C@@H](O)CC1 (some centres undefined)
TGI: 25.1 µM
//
COMPOUND: O=C(O)c1ccccc1.[Ag]
TGI: 19.6 µM
//
COMPOUND: COc1ccc(Cn2c(C)nc3c2C(=O)c2ccccc2C3=O)cc1
TGI: > 75 µM
//
COMPOUND: Cc1nc2sccn2c1/C=C1/C(=O)Nc2ccccc21
TGI: > 78.1 µM
//
COMPOUND: CCOc1cc2c(cc1O)/C(=N\N)C[C@@H]1[C@@H]2CC[C@]2(C)[C@@H](O)CC[C@@H]12
TGI: > 68 µM

Asked: Any idea what TGI came out for "CCCC(=O)O" on TK-10 renal?
Given back: > 18700 µM

Asked: Any idea what TGI came out for "O=C(NCCCCCCCCNC(=O)c1cnc2ccccc2n1)c1cnc2ccccc2n1" on TK-10 renal?
Given back: > 100 µM

Asked: Any idea what TGI came out for "O=C(O)[C@H]1[C@@H](C2CCCCC2)O[C@@H](C2CCCCC2)O[C@H]1C(F)(F)F" on TK-10 renal?
Given back: > 100 µM

Asked: Any idea what TGI came out for "CCCN(CCC)CCCNCc1cc(I)cc(C)c1O" on TK-10 renal?
Given back: 30.6 µM

Asked: Any idea what TGI came out for "COc1ccc2oc(=N)c(C(=O)Nc3cccc4ccccc34)cc2c1" on TK-10 renal?
Given back: 51.1 µM

Asked: Any idea what TGI came out for C=C(C)C(=O)CC[C@@H](C)[C@H]1[C@@H](OC2OC(CO)C(O)C(O)C2O)C[C@@]2(C)[C@@H]3C[C@H](O)C4C(C)(C)[C@@H](OC5OC(CO)C(O)C(O)C5O)CC[C@@]45C[C@@]35CC[C@]12C (some centres undefined) on TK-10 renal?
Given back: > 100 µM
